# method: counter-screen: blocks GFP chromophore formation, dose response, counter-screen, biochemical, fluorescence, homogeneous (AID 434968)
# test-parameters: cell-free GFP chromophore formation
The campaign covered roughly 2,100 compounds. About 1,800 (86%) were called active. How the calls were made is not given here. The set was probably picked from earlier hits. Only a sample is shown.
Returns: one label drawn from active, inactive

Some solved cases for reference:
compound	class-label
COc1ccc(-c2[nH]nc3c2C(c2ccncc2)C(C#N)=C(N)O3)cc1 (configuration not stated)	active
CSc1nnc(NC(=O)c2nc(S(=O)(=O)Cc3ccc(C)cc3)ncc2Cl)s1	active

Which outcome was assigned to `Cc1ccsc1/C=N/NC(=O)Cc1cc(=O)[nH][nH]1` in this test?
active

Please state the recorded outcome for this compound: CCCc1[nH]nc2c1C(c1ccc(Br)s1)C(C#N)=C(N)O2 (configuration not stated)
active

Please let me know the test result on file for CC1(N2CCOCC2)CC2(O)C(=[N+]1[O-])CCc1nonc12 (configuration not stated) .
active
